Data origin, for the record: patent US8431563B2

Task for the reader: assign each of the following compounds its reported pIC50.
- assay target: interaction between glucokinase (GK) and glucokinase regulatory protein (GKRP) (Homo sapiens, UniProt Q14397)
- method notes: biochemical
- Format: binding
- run parameters: GK-GKRP IC50 (Binding)
Keep in mind that pIC50 stands for -log10 of concentration in molar terms.

-- ask Quick check: pIC50 of CC(O)(c1ccc(N2CCN(S(=O)(=O)c3cccs3)C[C@@H]2CN2CCOC[C@H]2CO)cc1)C(F)(F)F (single isomer, unassigned) [Example 110 Peak #1] ?
-- reply 7.00

-- ask Queued: C[C@@H](C[C@H]1CN(S(=O)(=O)c2cccs2)CCN1c1ccc([C@](C)(O)C(F)(F)F)cc1)NC1COC1 (racemic) [Example 148]
-- reply 5.95

-- ask Queued: CC(O)(c1ccc(N2CCN(S(=O)(=O)c3cccs3)C[C@@H]2CNc2ccccc2)cc1)C(F)(F)F (mixture of isomers) [Example 203]
-- reply 6.56

-- ask Queued: CC(O)(c1ccc(N2CCN(S(=O)(=O)c3cccs3)C[C@@H]2CN2CC3CCOC3C2)cc1)C(F)(F)F (stereo partly shown) [Example 122]
-- reply 6.26

-- ask Queued: C[C@H]1CN(S(=O)(=O)c2ccc(N)s2)CCN1c1ncc(C(C)(O)C(F)(F)F)cn1 (mixture of isomers) [Example 137]
-- reply 6.55

-- ask Queued: CC(O)(c1ccc(N2CCN(S(=O)(=O)c3cccs3)C[C@@H]2CN2CCOCC2CNS(C)(=O)=O)cc1)C(F)(F)F (single isomer, unassigned) [Example 112 Peak #2]
-- reply 6.68

-- ask Queued: CC(O)(c1ccc(N2CCN(S(=O)(=O)c3cccs3)C[C@@H]2CN2C[C@H]3COC[C@H]3C2)cc1)C(F)(F)F (stereo partly shown) [Example 123]
-- reply 6.17

====

Task for the reader: assign each of the following molecules its reported EC50.
- assay target: GKRP (Glucokinase Regulatory Protein) with human His-hepatic GK (Homo sapiens, UniProt Q14397)
- method notes: biochemical
- run parameters: GK-GKRP EC50 (LC MS/MS-2)
All answers are understood in nM, so give the number only.

-- ask Quick check: EC50 of CC(O)(c1ccc(N2CCN(S(=O)(=O)c3cccs3)C[C@@H]2CNc2ccccc2)cc1)C(F)(F)F (mixture of isomers) ?
-- reply 146

-- ask Queued: CC(O)(c1ccc(N2CCN(S(=O)(=O)c3cccs3)C[C@@H]2CN2CCOC[C@H]2CO)cc1)C(F)(F)F (single isomer, unassigned) [Example 110 Peak #1]
-- reply 156

-- ask Queued: CC(O)(c1ccc(N2CCN(S(=O)(=O)c3cccs3)C[C@@H]2CN2CCOCC2CNS(C)(=O)=O)cc1)C(F)(F)F (single isomer, unassigned) [Example 112 Peak #2]
-- reply 332

====

- assay target: GKRP (Glucokinase Regulatory Protein) with human His-hepatic GK (Homo sapiens, UniProt Q14397)
- method notes: biochemical
- run parameters: 13C-glucose-6-phosphate formation; 280 nM GKRP (10×), 30 nM GK (5×); read-out: GK-GKRP EC50 (LC MS/MS-2)
property label: pEC50
Keep in mind that pEC50 stands for -log10 of concentration in molar terms.

-- ask Quick check: pEC50 of CC(C)CN(C[C@H]1CN(S(=O)(=O)c2cccs2)CCN1c1ccc(C(C)(O)C(F)(F)F)cc1)S(=O)(=O)CC(F)(F)F (mixture of isomers) ?
-- reply 6.61

-- ask Queued: CC(O)(c1ccc(N2CCN(S(=O)(=O)c3cccs3)C[C@@H]2Cn2ccc3cccnc32)cc1)C(F)(F)F (mixture of isomers)
-- reply 6.60

-- ask Queued: CC(O)(c1ccc(N2CCN(S(=O)(=O)c3cccs3)C[C@@H]2CS(=O)(=O)c2ccccc2)cc1)C(F)(F)F (single isomer, unassigned) [Example 187 Peak#2]
-- reply 7.28

-- ask Queued: CC(O)(c1ccc(N2CCN(S(=O)(=O)c3cccs3)C[C@@H]2CNC2COC2)cc1)C(F)(F)F (mixture of isomers)
-- reply 6.46

-- ask Queued: CC(C)CS(=O)(=O)N(C[C@H]1CN(S(=O)(=O)c2cccs2)CCN1c1ccc(C(C)(O)C(F)(F)F)cc1)c1cccnc1 (mixture of isomers)
-- reply 7.07

-- ask Queued: "Nc1ccc(S(=O)(=O)N2CCN(c3ncc(C(O)(C(F)(F)F)C(F)(F)F)cn3)[C@@H](CC3CCOCC3)C2)cn1"
-- reply 6.87

-- ask Queued: CC(O)(c1ccc(N2CCN(S(=O)(=O)c3cccs3)C[C@@H]2C[S+]([O-])c2ccc(F)cc2)cc1)C(F)(F)F (single isomer, unassigned) [Example 191 Peak#3]
-- reply 6.58

-- ask Queued: CC(C)C1C(=O)NCCN1C[C@H]1CN(S(=O)(=O)c2ccc(N)s2)CCN1c1ncc(C(O)(C(F)(F)F)C(F)(F)F)cn1 (single isomer, unassigned) [Example 184 Peak #1]
-- reply 7.92

-- ask Queued: C[C@H]1COCCN1C[C@H]1CN(S(=O)(=O)c2cccs2)CCN1c1ccc(C(O)(CO)C(F)(F)F)cc1 (mixture of isomers) [Example 83]
-- reply 7.72

-- ask Queued: CN(C)C(=O)CC1COCCN1C[C@H]1CN(S(=O)(=O)c2cccs2)CCN1c1ccc(C(C)(O)C(F)(F)F)cc1 (mixture of isomers)
-- reply 6.91

-- ask Queued: CC(O)(c1ccc(N2CCN(S(=O)(=O)c3cccs3)C[C@@H]2CN(C2COC2)C2COC2)cc1)C(F)(F)F (mixture of isomers)
-- reply 6.32

-- ask Queued: CC(O)(c1ccc(N2CCN(S(=O)(=O)c3cccs3)C[C@@H]2CN2[C@@H]3COC[C@H]2CC(=O)C3)cc1)C(F)(F)F (single isomer, unassigned) [Example 106 Peak#1]
-- reply 7.06

-- ask Queued: "Nc1ccc(S(=O)(=O)N2CCN(c3ccc(C(O)(C(F)(F)F)C(F)(F)F)cc3)CC2)s1"
-- reply 6.82

-- ask Queued: O=S(=O)(c1nccs1)N1CCN(c2ncc(C(O)(C(F)(F)F)C(F)(F)F)cn2)[C@@H](CN2C3COCC2C(O)C3)C1 (some centres unmarked)
-- reply 6.54

-- ask Queued: Cn1cnc(COC[C@H]2CN(S(=O)(=O)c3cccs3)CCN2c2ccc(C(C)(O)C(F)(F)F)cc2)c1 (mixture of isomers) [Example 119]
-- reply 6.77

-- ask Queued: CN(C[C@H]1CN(S(=O)(=O)c2cccs2)CCN1c1ccc(C(C)(O)C(F)(F)F)cc1)S(C)(=O)=O (mixture of isomers)
-- reply 6.63

-- ask Queued: CC1(COC[C@H]2CN(S(=O)(=O)c3cccs3)CCN2c2ccc(C(C)(O)C(F)(F)F)cc2)COC1 (mixture of isomers)
-- reply 6.33

-- ask Queued: "C[C@H]1COCCN1C[C@H]1CN(S(=O)(=O)c2cccs2)CCN1c1ncc(C(O)(C(F)(F)F)C(F)(F)F)cn1"
-- reply 7.59

-- ask Queued: "C[C@H]1CN(S(=O)(=O)c2ccc(N)nc2)CCN1c1ncc(C(O)(C(F)(F)F)C(F)(F)F)cn1"
-- reply 6.71

-- ask Queued: CC(C)C1C(=O)NCCN1C[C@H]1CN(S(=O)(=O)c2ccc(N)s2)CCN1c1ncc(C(O)(C(F)(F)F)C(F)(F)F)cn1 (single isomer, unassigned) [Example 184 Peak #2]
-- reply 7.60

-- ask Queued: CC(O)(c1ccc(N2CCN(S(=O)(=O)c3cccs3)C[C@@H]2CN2C3COCC2C(O)C3)cc1)C(F)(F)F (some centres unmarked) [Example 77]
-- reply 7.51

-- ask Queued: CC(C)N(C[C@H]1CN(S(=O)(=O)c2cccs2)CCN1c1ccc(C(C)(O)C(F)(F)F)cc1)S(=O)(=O)c1ccccc1 (mixture of isomers)
-- reply 7.10

-- ask Queued: CC1(C)C(=O)NCCN1C[C@H]1CN(S(=O)(=O)c2cccs2)CCN1c1ccc(C(C)(O)C(F)(F)F)cc1 (mixture of isomers) [Example 180]
-- reply 7.29

====

- assay target: GK-GKRP (Homo sapiens, UniProt Q14397)
- Sequence (Q14397 1-625): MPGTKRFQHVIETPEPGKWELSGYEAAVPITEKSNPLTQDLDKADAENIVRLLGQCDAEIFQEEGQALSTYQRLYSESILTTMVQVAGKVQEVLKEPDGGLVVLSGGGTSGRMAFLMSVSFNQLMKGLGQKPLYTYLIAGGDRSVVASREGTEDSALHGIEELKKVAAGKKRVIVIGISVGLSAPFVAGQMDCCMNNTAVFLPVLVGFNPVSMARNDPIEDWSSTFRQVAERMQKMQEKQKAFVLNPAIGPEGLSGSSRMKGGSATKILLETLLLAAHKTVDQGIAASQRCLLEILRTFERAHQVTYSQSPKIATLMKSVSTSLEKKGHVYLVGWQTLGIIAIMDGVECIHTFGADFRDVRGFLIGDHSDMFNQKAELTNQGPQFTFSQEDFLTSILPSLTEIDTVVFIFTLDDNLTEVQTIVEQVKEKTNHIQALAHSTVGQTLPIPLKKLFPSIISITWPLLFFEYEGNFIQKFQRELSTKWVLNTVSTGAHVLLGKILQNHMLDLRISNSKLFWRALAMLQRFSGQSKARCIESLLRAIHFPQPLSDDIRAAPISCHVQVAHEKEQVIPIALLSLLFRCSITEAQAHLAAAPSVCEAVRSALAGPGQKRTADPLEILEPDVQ
property label: pIC50
Keep in mind that pIC50 stands for -log10 of concentration in molar terms.

-- ask Quick check: pIC50 of Cc1cc(S(=O)(=O)c2ccc(N)nc2)ccc1-c1ncc(C(O)(C(F)(F)F)C(F)(F)F)cn1 [Example 268] ?
-- reply 6.99

-- ask Queued: Nc1ccc(S(=O)(=O)N2CCN(c3ccc(C(O)(C(F)(F)F)C(F)(F)F)cc3)[C@@H](CS(=O)(=O)c3ccccc3)C2)cn1 [Example 273]
-- reply 7.31

-- ask Queued: CC#CC1CN(S(=O)(=O)c2nnc(N)s2)CCN1c1ccc(C(O)(C(F)(F)F)C(F)(F)F)cc1 (racemic) [Example 249]
-- reply 6.95

-- ask Queued: Nc1ccc(S(=O)(=O)N2CCN(c3ncc(C(O)(C(F)(F)F)C(F)(F)F)cn3)[C@@H](CN3C4CCC3COC4)C2)cn1 [Example 271]
-- reply 8.52

-- ask Queued: CC(O)(c1ccc(N2CCN(S(=O)(=O)c3cccs3)C[C@@H]2CN(c2ccc(F)cc2)S(C)(=O)=O)cc1)C(F)(F)F (mixture of isomers) [Example 255]
-- reply 8.70

-- ask Queued: CC(O)(c1ccc(N2CCN(S(=O)(=O)c3cccs3)C[C@@H]2CN2CCNC(C(F)(F)F)C2)cc1)C(F)(F)F (single isomer, unassigned) [Example 270 Peak 2]
-- reply 6.33

-- ask Queued: CC#CC1CN(S(=O)(=O)c2cnc(N)c(F)c2)CCN1c1ccc(C(O)(C(F)(F)F)C(F)(F)F)cc1 (racemic) [Example 250]
-- reply 7.82
